Reference source for all entries: patent EP3860599B1

- test_protocol: Plasma concentrations up to 7 hours after oral dosing of human volunteers, Example 1B
- Assay type: in vivo
- measurement_conditions: po, 7.5 mg, Example 1B subject 4 (95 kg), 7.5 mg oral, 5 h
experimental_readout: concentration at 5 h (ng/mL)
Entry rule: numbers only, all in ng/mL.

## Task Identify the reported concentration at 5 h for the following entry. COc1cc2c(cc1OC)[C@H]1C[C@@H](O)[C@H](CC(C)C)CN1CC2 [(+)-α-dihydrotetrabenazine]
## Result 6.59

---

- test_protocol: Plasma concentrations after oral dosing (solution in apple juice) of human volunteers, Example 1A
- Type: in vivo
- measurement_conditions: human, plasma, po, 22.5 mg, subject 2 (76 kg); 22.5 mg oral; 1 h
experimental_readout: concentration at 1 h (ng/mL)
Entry rule: numbers only, all in ng/mL.

## Task Identify the reported concentration at 1 h for the following entry. COc1cc2c(cc1OC)[C@H]1C[C@@H](O)[C@H](CC(C)C)CN1CC2 [(+)-α-dihydrotetrabenazine]
## Result 21.8

---

- test_protocol: Plasma concentrations up to 7 hours after oral dosing of human volunteers, Example 1B
- Type: in vivo
- measurement_conditions: po, 7.5 mg, Example 1B subject 6 (107 kg), 7.5 mg oral, 4 h
experimental_readout: concentration at 4 h (ng/mL)
Entry rule: numbers only, all in ng/mL.

## Task Identify the reported concentration at 4 h for the following entry. COc1cc2c(cc1OC)[C@H]1C[C@@H](O)[C@H](CC(C)C)CN1CC2 [(+)-α-dihydrotetrabenazine]
## Result 5.61

---

- test_protocol: Plasma concentrations after oral dosing (solution in apple juice) of human volunteers, Example 1A
- Assay type: in vivo
- measurement_conditions: human, plasma, po, 22.5 mg, subject 6 (68 kg); 22.5 mg oral; 1 h
- Experimental: (+)-α-Dihydrotetrabenazine in defined amounts was administered by oral dosing (as a solution in apple juice) to six human volunteers. […] At 60 minutes after drug administration, PET scans were initiated and these were stopped at 120 minutes after drug administration. The experiment was carried out at dosages of 7.5 mg, 15 mg and 22.5 mg. […]
experimental_readout: concentration at 1 h (ng/mL)
Entry rule: numbers only, all in ng/mL.

## Task Identify the reported concentration at 1 h for the following entry. COc1cc2c(cc1OC)[C@H]1C[C@@H](O)[C@H](CC(C)C)CN1CC2 [(+)-α-dihydrotetrabenazine]
## Result 8.01

---

- test_protocol: Plasma concentrations after oral dosing (solution in apple juice) of human volunteers, Example 1A
- Type: in vivo
- measurement_conditions: human, plasma, po, 7.5 mg, subject 3 (129 kg); 7.5 mg oral; 1.5 h
- Experimental: (+)-α-Dihydrotetrabenazine in defined amounts was administered by oral dosing (as a solution in apple juice) to six human volunteers. […] At 60 minutes after drug administration, PET scans were initiated and these were stopped at 120 minutes after drug administration. The experiment was carried out at dosages of 7.5 mg, 15 mg and 22.5 mg. […]
experimental_readout: concentration at 1.5 h (ng/mL)
Entry rule: numbers only, all in ng/mL.

## Task Identify the reported concentration at 1.5 h for the following entry. COc1cc2c(cc1OC)[C@H]1C[C@@H](O)[C@H](CC(C)C)CN1CC2 [(+)-α-dihydrotetrabenazine]
## Result 6.91

---

- test_protocol: Plasma concentrations after oral dosing (solution in apple juice) of human volunteers, Example 1A
- Format: in vivo
- measurement_conditions: human, plasma, po, 7.5 mg, subject 4 (59 kg); 7.5 mg oral; 1 h
experimental_readout: concentration at 1 h

## Task Identify the reported concentration at 1 h for the following entry. COc1cc2c(cc1OC)[C@H]1C[C@@H](O)[C@H](CC(C)C)CN1CC2 [(+)-α-dihydrotetrabenazine]
## Result 15 ng/mL

---

- test_protocol: Plasma concentrations up to 7 hours after oral dosing of human volunteers, Example 1B
- Format: in vivo
- measurement_conditions: po, 7.5 mg, Example 1B subject 3 (76 kg), 7.5 mg oral, 6 h, read-out: plasma concentrations
experimental_readout: concentration at 6 h (ng/mL)
Entry rule: numbers only, all in ng/mL.

## Task Identify the reported concentration at 6 h for the following entry. COc1cc2c(cc1OC)[C@H]1C[C@@H](O)[C@H](CC(C)C)CN1CC2 [(+)-α-dihydrotetrabenazine]
## Result 5.57

---

- test_protocol: Plasma concentrations after oral dosing (solution in apple juice) of human volunteers, Example 1A
- Type: in vivo
- measurement_conditions: human, plasma, po, 15 mg, subject 2 (76 kg); 15 mg oral; 0.5 h
experimental_readout: concentration at 0.5 h (ng/mL)
Entry rule: numbers only, all in ng/mL.

## Task Identify the reported concentration at 0.5 h for the following entry. COc1cc2c(cc1OC)[C@H]1C[C@@H](O)[C@H](CC(C)C)CN1CC2 [(+)-α-dihydrotetrabenazine]
## Result 7.99

---

- test_protocol: Plasma concentrations after oral dosing (solution in apple juice) of human volunteers, Example 1A
- Assay type: in vivo
- measurement_conditions: human, plasma, po, 15 mg, subject 5 (91 kg); 15 mg oral; 2 h
experimental_readout: concentration at 2 h (ng/mL)
Entry rule: numbers only, all in ng/mL.

## Task Identify the reported concentration at 2 h for the following entry. COc1cc2c(cc1OC)[C@H]1C[C@@H](O)[C@H](CC(C)C)CN1CC2 [(+)-α-dihydrotetrabenazine]
## Result 31.8

---

- test_protocol: Plasma concentrations after oral dosing (solution in apple juice) of human volunteers, Example 1A
- Format: in vivo
- measurement_conditions: human, plasma, po, 15 mg, subject 2 (76 kg); 15 mg oral; 2 h
experimental_readout: concentration at 2 h (ng/mL)
Entry rule: numbers only, all in ng/mL.

## Task Identify the reported concentration at 2 h for the following entry. COc1cc2c(cc1OC)[C@H]1C[C@@H](O)[C@H](CC(C)C)CN1CC2 [(+)-α-dihydrotetrabenazine]
## Result 35.7

---

- test_protocol: Plasma concentrations after oral dosing (solution in apple juice) of human volunteers, Example 1A
- Format: in vivo
- measurement_conditions: human, plasma, po, 22.5 mg, subject 6 (68 kg); 22.5 mg oral; 2 h
experimental_readout: concentration at 2 h (ng/mL)
Entry rule: numbers only, all in ng/mL.

## Task Identify the reported concentration at 2 h for the following entry. COc1cc2c(cc1OC)[C@H]1C[C@@H](O)[C@H](CC(C)C)CN1CC2 [(+)-α-dihydrotetrabenazine]
## Result 12.5

---

- test_protocol: Plasma concentrations after oral dosing (solution in apple juice) of human volunteers, Example 1A
- Format: in vivo
- measurement_conditions: human, plasma, po, 15 mg, subject 4 (59 kg); 15 mg oral; 0.5 h
experimental_readout: concentration at 0.5 h (ng/mL)
Entry rule: numbers only, all in ng/mL.

## Task Identify the reported concentration at 0.5 h for the following entry. COc1cc2c(cc1OC)[C@H]1C[C@@H](O)[C@H](CC(C)C)CN1CC2 [(+)-α-dihydrotetrabenazine]
## Result 26.7

---

- test_protocol: Plasma concentrations after oral dosing (solution in apple juice) of human volunteers, Example 1A
- Format: in vivo
- measurement_conditions: human, plasma, po, 22.5 mg, subject 2 (76 kg); 22.5 mg oral; 3 h
experimental_readout: concentration at 3 h (ng/mL)
Entry rule: numbers only, all in ng/mL.

## Task Identify the reported concentration at 3 h for the following entry. COc1cc2c(cc1OC)[C@H]1C[C@@H](O)[C@H](CC(C)C)CN1CC2 [(+)-α-dihydrotetrabenazine]
## Result 51.8

---

- test_protocol: Plasma concentrations after oral dosing (solution in apple juice) of human volunteers, Example 1A
- Type: in vivo
- measurement_conditions: human, plasma, po, 22.5 mg, subject 1 (112 kg); 22.5 mg oral; 1 h
experimental_readout: concentration at 1 h
// unit must come after the numeric part

## Task Identify the reported concentration at 1 h for the following entry. COc1cc2c(cc1OC)[C@H]1C[C@@H](O)[C@H](CC(C)C)CN1CC2 [(+)-α-dihydrotetrabenazine]
## Result 18 ng/mL

---

- test_protocol: Plasma concentrations after oral dosing (solution in apple juice) of human volunteers, Example 1A
- Type: in vivo
- measurement_conditions: human, plasma, po, 15 mg, subject 4 (59 kg); 15 mg oral; 2 h
experimental_readout: concentration at 2 h (ng/mL)
Entry rule: numbers only, all in ng/mL.

## Task Identify the reported concentration at 2 h for the following entry. COc1cc2c(cc1OC)[C@H]1C[C@@H](O)[C@H](CC(C)C)CN1CC2 [(+)-α-dihydrotetrabenazine]
## Result 53.3

---

- test_protocol: Plasma concentrations after oral dosing (solution in apple juice) of human volunteers, Example 1A
- Type: in vivo
- measurement_conditions: human, plasma, po, 7.5 mg, subject 1 (112 kg); 7.5 mg oral; 1 h
experimental_readout: concentration at 1 h (ng/mL)
Entry rule: numbers only, all in ng/mL.

## Task Identify the reported concentration at 1 h for the following entry. COc1cc2c(cc1OC)[C@H]1C[C@@H](O)[C@H](CC(C)C)CN1CC2 [(+)-α-dihydrotetrabenazine]
## Result 0.94
